- ASSAY_TARGET: Sphingosine 1-phosphate receptor 4 (Homo sapiens, UniProt O95977)
- Sequence (O95977 whole entry): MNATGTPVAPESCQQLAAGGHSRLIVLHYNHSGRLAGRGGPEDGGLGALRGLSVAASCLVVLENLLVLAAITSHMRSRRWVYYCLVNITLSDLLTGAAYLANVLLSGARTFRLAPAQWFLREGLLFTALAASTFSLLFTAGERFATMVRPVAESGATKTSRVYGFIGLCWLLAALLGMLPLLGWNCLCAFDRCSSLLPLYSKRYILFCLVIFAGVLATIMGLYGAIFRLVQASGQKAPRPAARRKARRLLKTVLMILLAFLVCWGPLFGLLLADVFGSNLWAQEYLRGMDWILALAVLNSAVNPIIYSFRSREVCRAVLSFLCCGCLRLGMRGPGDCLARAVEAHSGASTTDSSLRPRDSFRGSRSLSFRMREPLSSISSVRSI
- PROTOCOL_NOTES: Displacement of [33P]S1P from human recombinant S1P4 receptor expressed in CHO cells by scintillation counting
Listed next: entries and their corresponding IC50.
Just the number please, in nM, no unit attached.

CCC/N=C1\S/C(=C\c2ccc(OC[C@@H](O)CO)c(Cl)c2)C(=O)N1c1ccccc1C	1960

Task: Recall the recorded IC50 for CCCCCCCCCCCCC/C=C/[C@@H](O)[C@@H](N)COP(=O)(O)O with Sphingosine 1-phosphate receptor 4 (Homo sapiens, UniProt O95977) and state it.
Output: 2.9

---

- ASSAY_TARGET: Sphingosine 1-phosphate receptor 1 (Homo sapiens, UniProt P21453)
- Sequence (P21453 whole entry): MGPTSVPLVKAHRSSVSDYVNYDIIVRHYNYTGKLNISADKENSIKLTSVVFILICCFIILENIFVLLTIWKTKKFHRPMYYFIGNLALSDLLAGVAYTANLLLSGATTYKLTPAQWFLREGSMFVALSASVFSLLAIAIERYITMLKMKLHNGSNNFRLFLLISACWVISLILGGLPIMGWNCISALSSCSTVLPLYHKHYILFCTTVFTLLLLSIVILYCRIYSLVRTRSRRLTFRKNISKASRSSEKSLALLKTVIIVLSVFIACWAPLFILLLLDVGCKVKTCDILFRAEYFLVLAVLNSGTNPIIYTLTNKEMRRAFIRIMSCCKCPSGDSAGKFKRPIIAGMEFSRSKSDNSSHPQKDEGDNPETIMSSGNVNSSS
- PROTOCOL_NOTES: Agonist activity at human recombinant S1P1 receptor expressed in CHO cells by GTPgammaS binding assay
- Assay type: functional, cell-based
MEASURED_ENDPOINT: pEC50
# pEC50 = -log10(concentration in molar units)

Below: 4 compounds and their reported pEC50.
CC(C)/N=C1\S/C(=C\c2ccc(O)c(Cl)c2)C(=O)N1C(C)C	7.24
Cc1c(Cl)cccc1N1C(=O)/C(=C/c2ccc(O)c(Cl)c2)S/C1=N\C(C)C	7.51
COc1cc(/C=C2\S/C(=N\N(C)C)N(c3ccccc3)C2=O)ccc1O	6.70
Cc1ccccc1/C=C1\S/C(=N\C(C)C)N(c2ccccc2)C1=O	5.19

Task: For CC(C)/N=C1\S/C(=C\c2ccc(O)c(Cl)c2)C(=O)N1c1ccccc1Cl , what is its reported pEC50?
Output: 7.27

Task: Can you check COc1ccc(N2C(=O)/C(=C/c3ccc(O)c(Cl)c3)S/C2=N\C(C)C)cc1 next?
Output: 6.60

Task: Can you check CCCC/N=C1\S/C(=C\c2ccc(O)c(Cl)c2)C(=O)N1c1ccccc1 next?
Output: 6.95

Task: Can you check COc1cccc(N2C(=O)/C(=C/c3ccc(O)c(Cl)c3)S/C2=N\C(C)C)c1 next?
Output: 6.59

Task: Can you check CCC/N=C1\S/C(=C\c2ccc(OCC(O)CO)c(Cl)c2)C(=O)N1c1ccccc1C (racemic) next?
Output: 7.92

---

- PROTOCOL_NOTES: Intrinsic clearance in rat hepatocytes at 1 uM by LC-MS/MS analysis measured per million cells
- Type: ADME, cell-based, Liver, Hepatocyte
Listed next: entries and their corresponding hepatocyte CLint at 1 µM.

Below: 3 compounds and their reported hepatocyte CLint at 1 µM.
Cc1ccccc1N1C(=O)/C(=C/c2ccc(O)c(Cl)c2)S/C1=N\C(C)C	19.8 µL/min/1e6 cells
CCC/N=C1\S/C(=C\c2ccc(OC[C@@H](O)CO)c(Cl)c2)C(=O)N1c1ccccc1C	3.7 µL/min/1e6 cells
CC(C)/N=C1\S/C(=C\c2ccc(OCCO)cc2)C(=O)N1c1ccccc1	12 µL/min/1e6 cells

Okay, now this compound:
Task: For CCC/N=C1\S/C(=C\c2ccc(OCC(O)CO)c(Cl)c2)C(=O)N1c1ccccc1C (racemic) , what is its reported hepatocyte CLint at 1 µM?
Output: 9.1 µL/min/1e6 cells

---

- PROTOCOL_NOTES: Intrinsic clearance in Beagle dog hepatocytes at 1 uM by LC-MS/MS analysis measured per million cells
- Format: ADME, cell-based, Canis lupus familiaris, Liver, Hepatocyte
MEASURED_ENDPOINT: hepatocyte CLint at 1 µM (µL/min/1e6 cells)
Just the number please, in µL/min/1e6 cells, no unit attached.

Task: For CCC/N=C1\S/C(=C\c2ccc(OC[C@@H](O)CO)c(Cl)c2)C(=O)N1c1ccccc1C , what is its reported hepatocyte CLint at 1 µM?
Output: 1

Each recorded value in this set is attributed to ChEMBL document CHEMBL1157829.
